Target: human Peroxisome Proliferator-activated Receptor delta (PPARd), PPARD (gene 5467)
Test: ATG_PPARd_TRANS: Attagene TRANS-FACTORIAL HepG2 Assay for human Peroxisome Proliferator-activated Receptor delta (PPARd) (AID 2283002)
Records with an inconclusive call do not appear. Calls of active or inactive are those of the source. The calls were made as follows: active = hit-call score of the fitted dose curve at least 0.9, where 1 is the maximum; inconclusive = response in the unintended direction; inactive = score below 0.9.
Permitted responses: active, inactive

Take a look at these entries with their results.
> print(dat)
                                  molecule     group
1                  O=C(O)c1cc(Cl)cc(Cl)c1O  inactive
2                     Oc1ccc(Cl)cc1C1CCCC1  inactive
3  C=C(C)C(=O)OCC1CCCO1 (stereo not given)  inactive
4                        O=C(O)/C=C\C(=O)O  inactive
5                              CCCCNC(N)=O  inactive
6       C[Si](C)(C)O[Si](C)(C)O[Si](C)(C)C  inactive

Now for another entry.
query: Outcome logged for CCCCCCCCCCC1CO1 (stereo not given) in this assay:
result: inactive

====

Assay: TOX21_p53_BLA_p2_viability: Viability Assessment in the Tox21 HCT-116 p53 Agonism Beta-lactamase Assay, Phase 2 (AID 2283591);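 also: compound exposure lasted 16 h at 37 °C; actives lower the ATP signal meaning cytotoxicity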
Records with an inconclusive call do not appear. Calls of active or inactive are those of the source. Rule for the calls: active = hit-call score of the fitted dose curve at least 0.9, where 1 is the maximum; inconclusive = response in the unintended direction; inactive = score below 0.9.
Permitted responses: active, inactive

query: Outcome logged for "CCOC(=O)c1cccnc1" in this assay:
result: inactive

query: Outcome logged for CC1(C)S[C@@H]2[C@H](NC(=O)C(C(=O)O)c3ccsc3)C(=O)N2[C@H]1C(=O)O (stereo not given in full) in this assay:
result: inactive

query: Outcome logged for "CC[C@H](C)[C@H]1O[C@]2(CC[C@@H]1C)C[C@@H]1C[C@@H](C/C=C(\C)[C@@H](O[C@H]3C[C@H](OC)[C@@H](O[C@H]4C[C@H](OC)[C@@H](O)[C@H](C)O4)[C@H](C)O3)[C@@H](C)/C=C/C=C3\CO[C@@H]4[C@H](O)C(C)=C[C@@H](C(=O)O1)[C@]34O)O2" in this assay:
result: active

query: Outcome logged for CCCNC(C)C(=O)Nc1ccccc1C (stereo not given) in this assay:
result: inactive

query: Outcome logged for "c1ccc(CN(CC2=NCCN2)c2ccccc2)cc1" in this assay:
result: inactive

query: Outcome logged for "CC=CC1=C(C(=O)O)N2C(=O)[C@@H](NC(=O)[C@H](N)c3ccc(O)cc3)[C@H]2SC1" in this assay:
result: inactive

====

Test system: SRY-box transcription factor 17 (SOX17) Protein Expression, Deisenroth Lab, SOX17 (gene 64321)
Assay: CCTE_Deisenroth_DEVTOX-GLR_legacy_Sox17: (Legacy) CCTE's DevTox GLR-Endo Assay Evaluation of SRY-box transcription factor 17 (SOX17) Protein Expression, Deisenroth Lab (AID 2284341)
Conditions: actives raise or lower the signal
Activity calls are given as the source filed them. Rule for the calls: active = hit-call score of the fitted dose curve at least 0.9, where 1 is the maximum; inactive = score below 0.9.
quantity: AC50

// known answers, use as guide
> print(dat)
                                   compound             result
1  COc1cc2ncnc(Nc3ccc(F)c(Cl)c3)c2cc1OCCCN1CCOCC1   5.74 µM (active)
2  CN1CCN2c3ccccc3Cc3ccccc3C2C1 (stereo unspecified)   34.3 µM (active)
3  Nc1cccc2c1CN(C1CCC(=O)NC1=O)C2=O (stereo unspecified)  0.328 µM (active)
4  Cc1ccc(NC(=O)c2ccc(CN3CCN(C)CC3)cc2)cc1Nc1nccc(-c2cccnc2)n1   16.5 µM (active)
5  CC1=C(/C=C/C(C)=C/C=C/C(C)=C\C(=O)O)C(C)(C)CCC1  0.159 µM (active)

We now examine a further compound.
query: Consider the compound "CCCCCN=C(N)N/N=C/c1c[nH]c2ccc(OC)cc12" . State its measured AC50.
result: 5.47 µM (active)

The reported measurements were obtained from PubChem BioAssay (EPA / NIEHS).
